- assayed-target: cdc2/cyclinB (Homo sapiens, UniProt P06493)
- Sequence (P06493 whole entry): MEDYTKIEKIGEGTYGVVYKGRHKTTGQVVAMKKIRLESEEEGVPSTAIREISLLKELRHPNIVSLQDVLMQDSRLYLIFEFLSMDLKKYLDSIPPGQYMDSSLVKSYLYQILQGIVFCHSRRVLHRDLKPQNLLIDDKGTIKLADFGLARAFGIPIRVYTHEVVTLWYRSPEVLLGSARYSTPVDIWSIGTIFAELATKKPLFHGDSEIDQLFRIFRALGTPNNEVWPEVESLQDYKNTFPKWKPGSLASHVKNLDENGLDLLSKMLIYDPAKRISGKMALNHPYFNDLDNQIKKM
- Sequence (P14635 whole entry, further chain): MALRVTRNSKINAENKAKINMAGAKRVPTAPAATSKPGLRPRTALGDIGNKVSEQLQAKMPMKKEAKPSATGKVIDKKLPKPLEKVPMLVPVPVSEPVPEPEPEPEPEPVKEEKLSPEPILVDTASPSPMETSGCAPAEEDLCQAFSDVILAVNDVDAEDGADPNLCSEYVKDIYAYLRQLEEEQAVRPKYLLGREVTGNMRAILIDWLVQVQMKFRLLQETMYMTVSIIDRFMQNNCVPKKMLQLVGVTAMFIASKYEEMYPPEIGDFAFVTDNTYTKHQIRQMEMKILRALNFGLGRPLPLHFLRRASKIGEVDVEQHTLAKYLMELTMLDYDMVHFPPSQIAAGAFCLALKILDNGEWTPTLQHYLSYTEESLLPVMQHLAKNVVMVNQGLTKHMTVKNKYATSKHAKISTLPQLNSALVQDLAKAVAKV
- method-notes: Cyclin-Dependent Kinase Assay cdc2/cyclinB
property-name: IC50 (nM)

Below, each entry is followed by its recorded IC50 result.
compound=CC(C)n1c(=O)ccc2cnc(Nc3ccc(O)c(Cl)c3)nc21 property_name=IC50 observed_measurement=68
compound="CCC(C)n1c(=O)ccc2cnc(Nc3cc(C(F)(F)F)ccc3F)nc21 (stereo not drawn)" property_name=IC50 observed_measurement=1300
compound=CC(=O)Nc1cc(Nc2ncc3ccc(=O)n(C(C)C)c3n2)ccc1C#N property_name=IC50 observed_measurement=520

(a) CCn1c(=O)ccc2cnc(Nc3cc(Cl)c(O)c(Cl)c3)nc21
(b) CC(C)n1c(=O)ccc2cnc(Nc3ccc(F)c(Cl)c3)nc21
(c) CCCCn1c(=O)ccc2cnc(Nc3ccc(OC)c(Cl)c3)nc21
(d) CCCn1c(=O)ccc2cnc(Nc3ccc(F)cc3)nc21
(e) CC1CCN(c2ccc(Nc3ncc4ccc(=O)n(C5CCCCC5)c4n3)cc2)CC1
stdin: Ordering criterion: IC50; begin with the maximum. Rank them, then answer with their labels in that order.
stdout: d, a, c, b, e
(d: 1050 nM, a: 440 nM, c: 204 nM, b: 140 nM, e: 78.5 nM)

====

- assayed-target: cdk4/D (Homo sapiens, UniProt P11802)
- Sequence (P11802 whole entry): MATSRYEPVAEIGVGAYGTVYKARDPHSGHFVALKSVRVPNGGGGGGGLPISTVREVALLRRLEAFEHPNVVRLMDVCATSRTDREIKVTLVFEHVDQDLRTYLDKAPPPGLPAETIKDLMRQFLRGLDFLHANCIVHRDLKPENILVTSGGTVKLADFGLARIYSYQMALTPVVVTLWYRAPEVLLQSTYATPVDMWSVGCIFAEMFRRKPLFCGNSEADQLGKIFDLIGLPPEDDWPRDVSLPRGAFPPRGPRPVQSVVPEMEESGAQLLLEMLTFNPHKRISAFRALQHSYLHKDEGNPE
- Sequence (P24385 whole entry, further chain): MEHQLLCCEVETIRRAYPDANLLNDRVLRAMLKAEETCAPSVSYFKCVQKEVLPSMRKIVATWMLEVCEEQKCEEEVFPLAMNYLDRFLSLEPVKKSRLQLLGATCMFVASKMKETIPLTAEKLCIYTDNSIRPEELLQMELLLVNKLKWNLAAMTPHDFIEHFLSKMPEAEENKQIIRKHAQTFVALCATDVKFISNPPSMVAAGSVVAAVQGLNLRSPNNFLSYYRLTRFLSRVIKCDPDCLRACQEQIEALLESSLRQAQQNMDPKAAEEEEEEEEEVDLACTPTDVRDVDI
- method-notes: Cyclin-Dependent Kinase 4 (cdk4) Assay
- Assay type: biochemical
- assay-context: Table 1; read-out: cdk4/D IC50
property-name: IC50 (nM)

(A) O=c1ccc2cnc(Nc3ccc(N4CCC(O)CC4)cc3)nc2n1C1CCCC1 [Example 198]
(B) CCN(CC)CCOc1ccc(Nc2ncc3ccc(=O)n(CCOCc4ccccc4)c3n2)cc1 [Example 139]
(C) Cc1cc(C)n(-c2ccc(Nc3ncc4ccc(=O)n(C5CCCC5)c4n3)cc2)n1 [Example 195]
(D) CC1CC(C)CN(c2ccc(Nc3ncc4ccc(=O)n(C5CCCCC5)c4n3)cc2)C1 (centres unmarked) [Example 167]
(E) COC(=O)Cn1c(=O)ccc2cnc(Nc3ccccc3)nc21 [Example 36]
stdin: Order the entries above from lowest to highest IC50. Rank them, then answer with their labels in that order.
stdout: A, C, D, B, E

====

- assayed-target: cdk4/D (Homo sapiens, UniProt P11802)
- method-notes: Cyclin-Dependent Kinase 4 (cdk4) Assay
- Format: biochemical
- assay-context: Table 2, Formula II compounds; read-out: cdk4 IC50
- Method: A typical assay, for instance, measures inhibitory activity against the cyclin D dependent kinase 4 enzyme (cdk4/D). […] The cdk4 assay was carried out as follows. Cyclin-Dependent Kinase 4 (cdk4) Assay All components except the ATP were added to the wells, and the plate was placed on a plate mixer for 2 minutes. […] The wells were then washed five times with 0.2 mL of 10% TCA and ^32P incorporation was determined with a beta plate counter (Wallac Inc., Gaithersburg, Md.).
property-name: pIC50
Bear in mind: pIC50 is minus log10 of a mol/L concentration; give just that figure.

chemical_structure=CCNc1nc(Nc2ccccc2)ncc1C=CC(=O)OCC observed_measurement=5.70

stdin: Give the measured pIC50 for CCOC(=O)C=Cc1cnc(Nc2ccccc2)nc1N
stdout: 4.19

====

- assayed-target: cdc2/cyclinB (Homo sapiens)
- method-notes: Cyclin-Dependent Kinase Assay cdc2/cyclinB
property-name: IC50 (µM)

Below, each entry is followed by its recorded IC50 result.
compound="CC(C)n1c(=O)ccc2cnc(Nc3ccc(C#N)cc3)nc21 [Example 433]" assayed_target="cdc2/cyclinB (Homo sapiens)" unit_of_measure=µM observed_measurement=0.48
compound="CCC(CC)n1c(=O)ccc2cnc(Nc3ccc(F)c(C)c3)nc21 [Example 503]" assayed_target="cdc2/cyclinB (Homo sapiens)" unit_of_measure=µM observed_measurement=0.079
compound="Cc1ccc(Nc2ncc3ccc(=O)n(C4CCCC4)c3n2)cc1NS(C)(=O)=O [Example 555]" assayed_target="cdc2/cyclinB (Homo sapiens)" unit_of_measure=µM observed_measurement=0.22

(P) CCC(CC)n1c(=O)ccc2cnc(Nc3ccc4cn[nH]c4c3)nc21 [Example 518]
(Q) CC(C)n1c(=O)ccc2cnc(Nc3cc(Cl)cc(Cl)c3)nc21 [Example 429]
stdin: Lower value of IC50 belongs to which: P or Q ? Returns: label corresponding to the selected item.
stdout: P
(P: 0.0315 µM, Q: 0.23 µM)

(1) CCCCn1c(=O)ccc2cnc(Nc3cc([N+](=O)[O-])ccc3F)nc21 [Example 415]
(2) CCCCn1c(=O)ccc2cnc(Nc3ccc(Cl)c(C)c3)nc21 [Example 388]
stdin: Short answer wanted: higher IC50, 1 or 2 ? Returns: label corresponding to the selected item.
stdout: 1
(1: 1.1 µM, 2: 0.2 µM)

(a) CCC(C)n1c(=O)ccc2cnc(Nc3ccc(O)cc3F)nc21 (stereo not shown) [Example 451]
(b) CCC(C)n1c(=O)ccc2cnc(Nc3ccc4[nH]ccc4c3)nc21 (stereo not shown) [Example 447]
stdin: Short answer wanted: higher IC50, a or b ? Returns: label corresponding to the selected item.
stdout: a
(a: 0.59 µM, b: 0.0895 µM)

(1) O=c1ccc2cnc(Nc3ccc(N4CCC(CCCO)CC4)cc3)nc2n1C1CCCC1 [Example 197]
(2) CCCn1c(=O)ccc2cnc(Nc3ccc(C#N)cc3)nc21 [Example 322]
(3) N#Cc1ccc(Nc2ncc3ccc(=O)n(C4CCCC4)c3n2)cc1 [Example 531]
(4) O=c1ccc2cnc(Nc3ccc(N4CCCCC4)cc3)nc2n1C1CCOC1 (racemic) [Example 200]
stdin: Sort ascending by IC50. Rank them, then answer with their labels in that order.
stdout: 3, 2, 4, 1
(3: 0.17 µM, 2: 0.597 µM, 4: 4.34 µM, 1: 7.39 µM)

(1) CCCn1c(=O)ccc2cnc(Nc3ccc(F)c(Cl)c3)nc21 [Example 369]
(2) CCn1c(=O)ccc2cnc(Nc3cc([N+](=O)[O-])ccc3F)nc21 [Example 297]
stdin: Short answer wanted: higher IC50, 1 or 2 ? Returns: label corresponding to the selected item.
stdout: 2

(a) CCCn1c(=O)ccc2cnc(Nc3ccc(C#N)c(NC(C)=O)c3)nc21 [Example 340]
(b) O=c1ccc2cnc(Nc3ccc(N4CCCC4)cc3)nc2n1C1CCCCC1 [Example 160]
stdin: Lower value of IC50 belongs to which: a or b ? Returns: label corresponding to the selected item.
stdout: b
(b: 0.25 µM, a: 1.3 µM)

# credit: patent US20040224958A1
